Attribution: patent EP3212201B1

- target.or.test.system: CHEK1 (CHK1) (Homo sapiens, UniProt O14757)
- Sequence (O14757 1-476): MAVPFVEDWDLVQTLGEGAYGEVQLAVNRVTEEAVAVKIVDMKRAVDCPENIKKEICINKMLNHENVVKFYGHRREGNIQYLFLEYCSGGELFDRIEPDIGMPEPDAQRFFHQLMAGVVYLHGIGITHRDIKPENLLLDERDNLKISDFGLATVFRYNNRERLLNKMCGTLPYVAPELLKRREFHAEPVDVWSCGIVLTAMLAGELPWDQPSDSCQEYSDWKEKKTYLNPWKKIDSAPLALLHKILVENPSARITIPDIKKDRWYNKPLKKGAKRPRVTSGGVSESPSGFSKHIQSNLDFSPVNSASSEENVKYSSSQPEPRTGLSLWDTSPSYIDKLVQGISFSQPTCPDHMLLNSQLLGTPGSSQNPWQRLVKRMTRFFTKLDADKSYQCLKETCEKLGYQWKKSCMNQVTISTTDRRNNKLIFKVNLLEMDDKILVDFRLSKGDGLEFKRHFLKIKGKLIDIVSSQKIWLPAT
- assay.info: FRET-based coupled-enzyme protein kinase inhibition assay
- Assay type: biochemical
- test.conditions: compound at 10 µM, 1% DMSO
readout.label: inhibition at 10 µM (%)
The answer is to be given in %; state only the numeric part.

Some solved entries appear below for comparison.
molecule | value.measured
Nc1ncnc2c1ncn2[C@@H]1O[C@H](COC(=O)N2CCN(CCc3ccccc3)CC2)[C@@H](O)[C@H]1O | 20
Nc1ncnc2c1ncn2[C@@H]1O[C@H](COC(=O)N2CCC(Cc3ccc(F)cc3)C2)[C@@H](O)[C@H]1O (stereo partly drawn) | 18
Nc1ncnc2c1ncn2[C@@H]1O[C@H](COC(=O)N2CCN(Cc3ccccc3)CC2CO)[C@@H](O)[C@H]1O (stereo partly drawn) | -8
Nc1ncnc2c1ncn2[C@@H]1O[C@H](COC(=O)N[C@@H]2CCN(Cc3ccccc3)C2)[C@@H](O)[C@H]1O | -3
Nc1ncnc2c1ncn2[C@@H]1O[C@H](COC(=O)NC[C@H](O)CO)[C@@H](O)[C@H]1O | -8

Asked: // returns reported inhibition at 10 µM for input CN1CCN(CCNC(=O)OC[C@H]2O[C@@H](n3cnc4c(N)ncnc43)[C@H](O)[C@@H]2O)CC1
Given back: 2

Asked: What measured inhibition at 10 µM goes with Nc1ncnc2c1ncn2[C@@H]1O[C@H](COC(=O)N2CCC[C@H]2CO)[C@@H](O)[C@H]1O ?
Given back: 14

Asked: I have this molecule here, N#CCCN1CCN(C(=O)OC[C@H]2O[C@@H](n3cnc4c(N)ncnc43)[C@H](O)[C@@H]2O)CC1 , and I need its recorded inhibition at 10 µM.
Given back: -11

Asked: So what's the measured inhibition at 10 µM for this one? CN(C)CCNC(=O)OC[C@H]1O[C@@H](n2cnc3c(N)ncnc32)[C@H](O)[C@@H]1O
Given back: -9

Asked: Which measured inhibition at 10 µM value corresponds to Nc1ncnc2c1ncn2[C@@H]1O[C@H](COC(=O)N2CCN(C(=O)N3CCOCC3)CC2)[C@@H](O)[C@H]1O ?
Given back: -20

Asked: Would you mind telling me what inhibition at 10 µM value was observed for Nc1ncnc2c1ncn2[C@@H]1O[C@H](COC(=O)NCCCc2nc3ccccc3[nH]2)[C@@H](O)[C@H]1O ?
Given back: -20

Asked: inhibition at 10 µM lookup needed for CS(=O)(=O)N1CC2(CCN(C(=O)OC[C@H]3O[C@@H](n4cnc5c(N)ncnc54)[C@H](O)[C@@H]3O)CC2)c2ccccc21 , thanks.
Given back: -8
